Test: melting temperature; melt of duplexes
Settings: sodium 0.0675 M; strand 1 µM
Param threshold (50 °C) applies to Tm; output Condition met when value >= threshold, Condition not met when value < threshold.

Could you please find out whether CGACGTGCCTGATGTGCTG+CAGCACATGTGGCACGTCG (((((((((..((((((((+))))))))..))))))))) has Tm that meets 50 °C or exceeds it?
Condition met

# bool: Tm of CGACGTGCGCGATGTGCTG+CAGCACATCCAGCACGTCG ((((((((..(((((((((+)))))))))..)))))))) >= 50 °C
Condition met

Determine whether this substance has Tm no lower than 50 °C: CGACGTGCCTTATGTGCTG+CAGCACATGGGGCACGTCG (((((((((..((((((((+))))))))..)))))))))
Condition met

Does Tm meet or surpass 50 °C for CGACGTGCGTCATGTGCTG+CAGCACATAATGCACGTCG ((((((((.(.((((((((+)))))))).).)))))))) ?
Condition met

Reported Tm at or above 50 °C? CGACGTGCTGGATGTGCTG+CAGCACATAGTGCACGTCG ((((((((...((((((((+))))))))...))))))))
Condition not met

Check if Tm >= 50 °C (inclusive). Item: CGACGTGCCCAATGTGCTG+CAGCACATCGTGCACGTCG ((((((((.(.((((((((+)))))))).).))))))))
Condition not met

Identify whether the reported Tm of the following substance is 50 °C or greater: CGACGTGCCTCATGTGCTG+CAGCACATACTGCACGTCG ((((((((...((((((((+))))))))...))))))))
Condition not met

Is reported Tm greater than or equal to 50 °C here: CGACGTGCCTCATGTGCTG+CAGCACATGCGGCACGTCG (((((((((.(((((((((+))))))))).)))))))))
Condition met

State whether the measured Tm reaches 50 °C, counting equality as reaching it, for CGACGTGCCAGATGTGCTG+CAGCACATACGGCACGTCG (((((((((..((((((((+))))))))..)))))))))
Condition met

Entry CGACGTGCGTTATGTGCTG+CAGCACATCGAGCACGTCG ((((((((...((((((((+))))))))...)))))))) : is its Tm no less than 50 °C?
Condition met

Is Tm at least 50 °C? Consider CGACGTGCGAAATGTGCTG+CAGCACATGCGGCACGTCG ((((((((...((((((((+))))))))...))))))))
Condition met

Check if Tm >= 50 °C (inclusive). Item: CGACGTGCGTCATGTGCTG+CAGCACATTTTGCACGTCG ((((((((...((((((((+))))))))...))))))))
Condition not met

Threshold query (Tm >= 50 °C) on CGACGTGCCTTATGTGCTG+CAGCACATTTCGCACGTCG ((((((((...((((((((+))))))))...))))))))
Condition not met

Evaluate CGACGTGCGTAATGTGCTG+CAGCACATATCGCACGTCG (((((((((..((((((((+))))))))..))))))))) : Tm at minimum 50 °C?
Condition met

API: above_or_equal(metric=Tm, cutoff=50 °C) for item CGACGTGCACTATGTGCTG+CAGCACATAGGGCACGTCG ((((((((.((((((((((+)))))))))).))))))))
Condition met

For this substance, is measured Tm 50 °C or higher? CGACGTGCCGAATGTGCTG+CAGCACATTAAGCACGTCG ((((((((..(((((((((+)))))))))..))))))))
Condition met

Tell me whether Tm is at least 50 °C here: CGACGTGCACTATGTGCTG+CAGCACATTCGGCACGTCG ((((((((...((((((((+))))))))...))))))))
Condition not met

Hi team, for CGACGTGCGTAATGTGCTG+CAGCACATCGTGCACGTCG ((((((((...((((((((+))))))))...)))))))) , is the recorded Tm at or above 50 °C?
Condition not met
